experiment: Metabolic stability in mouse liver microsomes assessed as parent compound remaining at 1 uM measured upto 60 mins in presence of NADPH by LC-MS/MS analysis; type: ADME, Microsome; conditions: read-out: Stabilty
reported-property: remaining at 1 h, 1 µM (%)

{"compound": "Cc1cc(-c2nc(C(=O)Nc3cc4oc(N5CCOCC5)nc4nc3N3CC[C@@H](O)C3)co2)ccn1 [EMAVUSERTIB]", "censor-symbol": ">", "experimental-value": 95}
{"compound": "Cc1cc(-c2nc(C(=O)Nc3cc4oc(N5CCOCC5)nc4nc3C3CC3)co2)ccn1", "censor-symbol": "=", "experimental-value": 13}
{"compound": "Cc1cc(-c2nc(C(=O)Nc3cc4oc(N5CCOCC5)nc4nc3N3CC[C@@H](N)C3)co2)ccn1", "censor-symbol": "=", "experimental-value": 82}
{"compound": "Cc1cc(-c2nc(C(=O)Nc3cc4oc(N5CCOCC5)nc4nc3N3CC[C@@H](F)C3)co2)ccn1", "censor-symbol": "=", "experimental-value": 88}

The reported numbers originate from ChEMBL document CHEMBL4665913.
